Origin of measurements: the kinase profiling compilation of Christmann-Franck et al. (2016)

- SYSTEM UNDER TEST: UniProtKB P48730
- Sequence (P48730 whole entry, looked up): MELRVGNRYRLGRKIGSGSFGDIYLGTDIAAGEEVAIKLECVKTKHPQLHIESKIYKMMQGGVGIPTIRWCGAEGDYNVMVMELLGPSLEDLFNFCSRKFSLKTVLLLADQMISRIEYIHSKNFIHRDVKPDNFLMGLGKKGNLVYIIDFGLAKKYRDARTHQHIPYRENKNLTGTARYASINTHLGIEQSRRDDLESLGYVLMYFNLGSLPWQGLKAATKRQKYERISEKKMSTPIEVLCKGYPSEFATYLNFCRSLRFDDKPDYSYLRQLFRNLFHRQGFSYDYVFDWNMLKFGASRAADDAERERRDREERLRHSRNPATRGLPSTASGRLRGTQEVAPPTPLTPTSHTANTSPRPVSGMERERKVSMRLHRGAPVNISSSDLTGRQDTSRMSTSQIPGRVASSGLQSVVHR
- ASSAY INFO: KINOMEscan competition binding
- SETUP CONDITIONS: compound 10.0 µM
REPORTED ENDPOINT: kinase still bound, per cent of control (%)
Form entry: value (%) — number only.

Please report the recorded kinase still bound, per cent of control for NC(=O)Nc1cc(-c2cccc(F)c2)sc1C(=O)N[C@@H]1CCCNC1 .
15

Can you check CN(C)C/C=C/C(=O)Nc1ccc(C(=O)Nc2cccc(Nc3nccc(-c4cccnc4)n3)c2)cc1 next?
20

Can you check C=CC(=O)Nc1ccc(CN(C(=O)Nc2c(Cl)c(OC)cc(OC)c2Cl)c2cc(Nc3ccc(N4CCN(C)CC4)cc3)ncn2)cc1 next?
100

Can you check CS(=O)(=O)N1CCN(Cc2cc3nc(-c4cccc5[nH]ncc45)nc(N4CCOCC4)c3s2)CC1 next?
100

Can you check CCN1CCN(C(=O)Cc2ccc(Nc3ncc(F)c(Nc4ccc(C(=O)Nc5ccccc5Cl)cc4)n3)cc2)CC1 next?
100

Can you check O=C1NC(=O)/C(=C/c2ccc3nccc(-c4ccncc4)c3c2)S1 next?
3.6

Can you check COCC(=O)NC/C=C/c1ccc2ncnc(Nc3ccc(Oc4ccc(C)nc4)c(C)c3)c2c1 next?
90

Can you check O=C(Nc1cccc(Nc2ncc(Br)c(NCCc3cnc[nH]3)n2)c1)N1CCCC1 next?
73

Can you check CNC(=O)c1ccc(Nc2cc(Nc3ccccc3S(=O)(=O)C(C)C)c3cc[nH]c3n2)nc1 next?
100

Can you check COc1cc(N2CCN(C)CC2)ccc1Nc1ncc2c(n1)N(C)c1ccccc1C(=O)N2C next?
100

Can you check COc1ccc(N(C(=O)Oc2c(C)cccc2C)c2ccnc(Nc3ccc(N4CCN(C)CC4)cc3)n2)c(OC)c1 next?
82
